Assay: self-splicing fitness, log relative to wild type (ln ratio); higher = more splicing; Tetrahymena group I intron in knt gene, E. coli kanamycin selection, DiMSum; sequences stand for … in CUCUCU…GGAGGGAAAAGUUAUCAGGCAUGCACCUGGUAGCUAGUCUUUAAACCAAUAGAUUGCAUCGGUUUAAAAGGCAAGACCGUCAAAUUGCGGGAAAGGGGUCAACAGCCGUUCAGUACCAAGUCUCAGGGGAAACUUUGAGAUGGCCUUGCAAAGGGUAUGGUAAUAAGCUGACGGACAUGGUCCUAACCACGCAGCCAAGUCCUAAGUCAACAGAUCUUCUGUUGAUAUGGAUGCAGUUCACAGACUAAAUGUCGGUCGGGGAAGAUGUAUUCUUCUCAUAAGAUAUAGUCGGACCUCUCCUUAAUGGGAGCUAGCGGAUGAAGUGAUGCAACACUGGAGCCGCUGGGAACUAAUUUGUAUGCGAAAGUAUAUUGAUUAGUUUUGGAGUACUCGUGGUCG;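 also: selection with 25 µg/mL kanamycin versus none on LB agar overnight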
Details: 37 °C
Classes are defined on self-splicing fitness (ln) with ranges lower range (below -2), middle range (-2 to below -0.4), upper range (-0.4 or more)

Recorded results for 5 sequences are shown here.
>>> label_class("AUAUAGCAAUAUUACGCAAU")
"middle range"
>>> label_class("UCUAAGCAAUAUUACGCGUG")
"middle range"
>>> label_class("GGACAGCAAUAUUACGUUUA")
"upper range"
>>> label_class("AUGGAGCAAUAUUACGCACU")
"upper range"
>>> label_class("GGGCAGCAAUAUUACGCAAG")
"middle range"

Band of UUCCAGCAAUAUUACGGGCU ? lower range

Band of GAUUAGCAAUAUUACGGUUU ? upper range

Band of AUUAAGCAAUAUUACGUAGC ? middle range

Band of CAAGAGCAAUAUUACGACGA ? middle range

Band of UCAAAGCAAUAUUACGAUAC ? lower range

Band of CUAUAGCAAUAUUACGGACG ? upper range

Band of CUUCAGCAAUAUUACGAACC ? middle range

Band of CUUUAGCAAUAUUACGUCAA ? lower range

Band of GUAAAGCAAUAUUACGGCAA ? upper range

Band of AGCGAGCAAUAUUACGGUCU ? middle range

* * *

Assay: self-splicing fitness, log relative to wild type (ln ratio); higher = more splicing; Tetrahymena group I intron in knt gene, E. coli kanamycin selection, DiMSum; sequences stand for … in CUCUCU…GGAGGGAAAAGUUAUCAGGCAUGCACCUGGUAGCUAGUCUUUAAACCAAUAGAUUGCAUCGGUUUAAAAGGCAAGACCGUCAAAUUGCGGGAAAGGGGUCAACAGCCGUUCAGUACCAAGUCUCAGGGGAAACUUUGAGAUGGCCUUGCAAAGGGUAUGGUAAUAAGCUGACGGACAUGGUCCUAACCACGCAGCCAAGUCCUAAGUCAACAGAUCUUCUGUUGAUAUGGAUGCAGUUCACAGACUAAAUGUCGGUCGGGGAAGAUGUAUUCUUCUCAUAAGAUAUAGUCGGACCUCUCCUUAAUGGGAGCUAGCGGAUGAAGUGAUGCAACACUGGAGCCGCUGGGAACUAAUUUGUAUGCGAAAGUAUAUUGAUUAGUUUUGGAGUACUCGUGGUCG
Conditions: 30 °C
self-splicing fitness (ln) overview
Lab note: jot down the number only; don't add units.

>>> assay_value("ACUAAGCAAUAUUACGUUCC")
-2.41

Tell me the measured self-splicing fitness (ln) of CCCAAGCAAUAUUACGUACU , please. -3.84

* * *

Experiment: self-splicing fitness, log relative to wild type (ln ratio); higher = more splicing; Tetrahymena group I intron in knt gene, E. coli kanamycin selection, DiMSum; sequences stand for … in CUCUCU…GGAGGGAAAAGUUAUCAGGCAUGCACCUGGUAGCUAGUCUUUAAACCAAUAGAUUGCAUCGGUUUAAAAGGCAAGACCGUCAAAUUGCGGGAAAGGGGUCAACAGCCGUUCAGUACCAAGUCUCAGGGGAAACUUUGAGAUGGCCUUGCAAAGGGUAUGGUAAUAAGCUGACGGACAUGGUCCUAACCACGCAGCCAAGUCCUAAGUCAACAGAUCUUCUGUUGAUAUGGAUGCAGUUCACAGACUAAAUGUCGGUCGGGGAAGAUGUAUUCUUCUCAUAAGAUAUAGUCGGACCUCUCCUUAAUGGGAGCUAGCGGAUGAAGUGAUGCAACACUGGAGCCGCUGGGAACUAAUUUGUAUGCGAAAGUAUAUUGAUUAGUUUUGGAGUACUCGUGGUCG
Conditions: 37 °C
Classes are defined on self-splicing fitness (ln) with ranges band 1 (below -0.5), band 2 (-0.5 to below -0.3), band 3 (-0.3 or more)

Recorded results for 2 sequences are shown here.
>>> label_class("GACAAGCAAUAUUACGGCCU")
"band 2"
>>> label_class("UUAAAGCAAUAUUACGGGAA")
"band 2"

Turning now to a further sequence:
Band of GCCAAGCAAUAUUACGGCAC ? band 3

* * *

Experiment: self-splicing fitness, log relative to wild type (ln ratio); higher = more splicing; Tetrahymena group I intron in knt gene, E. coli kanamycin selection, DiMSum; sequences stand for … in CUCUCU…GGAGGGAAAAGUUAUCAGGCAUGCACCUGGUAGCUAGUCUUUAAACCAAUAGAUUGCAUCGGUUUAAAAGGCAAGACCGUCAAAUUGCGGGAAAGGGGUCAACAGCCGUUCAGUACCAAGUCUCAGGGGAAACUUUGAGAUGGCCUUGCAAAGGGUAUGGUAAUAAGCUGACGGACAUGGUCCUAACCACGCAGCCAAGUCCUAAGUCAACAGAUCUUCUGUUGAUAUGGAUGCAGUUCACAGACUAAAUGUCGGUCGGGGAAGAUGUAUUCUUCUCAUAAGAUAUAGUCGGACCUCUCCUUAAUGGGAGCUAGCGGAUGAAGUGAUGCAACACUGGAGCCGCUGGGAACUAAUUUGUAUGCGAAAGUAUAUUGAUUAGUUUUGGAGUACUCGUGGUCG
Settings: 37 °C
Is self-splicing fitness (ln) at least -2? Then yes. If not, no.

Test whether the sequence UGGCAGCAAUAUUACGCGUG records self-splicing fitness (ln) of -2 or higher. yes

Test whether the sequence UAAAAGCAAUAUUACGUAUA records self-splicing fitness (ln) of -2 or higher. yes

Test whether the sequence GCACAGCAAUAUUACGCCCU records self-splicing fitness (ln) of -2 or higher. yes

Test whether the sequence UCCGAGCAAUAUUACGGUGA records self-splicing fitness (ln) of -2 or higher. yes

Test whether the sequence CUCGAGCAAUAUUACGACGA records self-splicing fitness (ln) of -2 or higher. yes

Test whether the sequence CGUAAGCAAUAUUACGCCGG records self-splicing fitness (ln) of -2 or higher. yes

Test whether the sequence ACUGAGCAAUAUUACGGGGG records self-splicing fitness (ln) of -2 or higher. no

Test whether the sequence CAACAGCAAUAUUACGGAUA records self-splicing fitness (ln) of -2 or higher. no

* * *

Assay: self-splicing fitness, log relative to wild type (ln ratio); higher = more splicing; Tetrahymena group I intron in knt gene, E. coli kanamycin selection, DiMSum; sequences stand for … in CUCUCU…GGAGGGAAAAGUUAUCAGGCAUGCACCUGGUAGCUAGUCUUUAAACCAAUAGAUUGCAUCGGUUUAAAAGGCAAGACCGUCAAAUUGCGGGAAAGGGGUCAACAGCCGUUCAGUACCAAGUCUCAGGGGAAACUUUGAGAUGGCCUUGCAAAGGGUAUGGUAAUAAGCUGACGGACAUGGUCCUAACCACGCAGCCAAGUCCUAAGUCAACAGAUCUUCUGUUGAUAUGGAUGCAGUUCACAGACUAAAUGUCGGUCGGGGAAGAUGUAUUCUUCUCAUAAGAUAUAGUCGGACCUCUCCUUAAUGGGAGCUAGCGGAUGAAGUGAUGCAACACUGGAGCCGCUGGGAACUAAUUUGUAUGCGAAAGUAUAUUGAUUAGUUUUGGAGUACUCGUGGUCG
Conditions: 37 °C
self-splicing fitness (ln) overview
Lab note: jot down the number only; don't add units.

Consider the reported self-splicing fitness (ln) for these sequences:
>>> assay_value("CAAUAGCAAUAUUACGUAUU")
-2.65
>>> assay_value("UACAAGCAAUAUUACGGGAU")
-1.39
>>> assay_value("ACCUAGCAAUAUUACGGAGC")
-1.28
>>> assay_value("CGGGAGCAAUAUUACGCGGG")
-2.83
>>> assay_value("GAUAAGCAAUAUUACGAUCA")
-0.134
>>> assay_value("CCCGAGCAAUAUUACGAUUA")
-2.4

Tell me the measured self-splicing fitness (ln) of GUUCAGCAAUAUUACGGUAU , please. 0.309

Tell me the measured self-splicing fitness (ln) of CGCCAGCAAUAUUACGGUUU , please. -0.589

Tell me the measured self-splicing fitness (ln) of UAUUAGCAAUAUUACGCUGU , please. 0.0696
